assay: Brain and plasma exposure in rats after oral dosing (DMPK analysis); assay type: in vivo; settings: male, Sprague Dawley, rat, 10 mg/kg p.o., 3 hours post dose, plasma, read-out: Exp, plasma
Quick list: concentration at 3 h per entry.
Assay Metric: concentration at 3 h (ng/g)

INSERT INTO assay_data (smiles_string, unit_spec, observed) VALUES
  ('Cc1cc(C#N)cnc1C(=O)Nc1ccc(F)c([C@@]2(C)N=C(N)[C@@](C)(F)CC2(F)F)c1', 'ng/g', 778),
  ('COc1cnc(C(=O)Nc2ccc(F)c([C@@]3(C)N=C(N)[C@@](C)(F)CC3(F)F)c2)cn1', 'ng/g', 137),
  ('C[C@@]1(F)CC(F)(F)[C@@](C)(c2cc(NC(=O)c3cnc(C(F)F)cn3)ccc2F)N=C1N', 'ng/g', 96.2);

----------
Quick list: inhibition at 10 µM per entry.
Biological target: BACE1 enzyme (Homo sapiens (Human))
Experiment: BACE1 efficacy assay (FRET-based, commercial BACE1 kit)
Assay type: biochemical
Conditions: test compound 10 μM, 3 nM enzyme, 250 nM substrate
Procedure: The efficacy assay was performed as a FRET-based assay using a commercially available BACE1 kit (Life Technologies, P2985). 2 μl test compound at 10 μM (final concentration) and 15 μl BACE1 enzyme from the kit (final concentration 3 nM) were preincubated for 15 minutes at room temperature before addition of 15 μl of substrate from the kit (250 nM final concentration) and incubated for additional 90 minutes at room temperature. The assay plate was subsequently read in a Pherastar (Ex540/Em590). […]
Assay Metric: inhibition at 10 µM (%)

INSERT INTO assay_data (molecule, target_entity, observed) VALUES
  ('C[C@]1(F)CC(F)(F)[C@@](C)(c2cc(NC(=O)c3ccc(F)cn3)ccc2F)N=C1N [Compound 1]', 'BACE1 enzyme (Homo sapiens (Human))', 104),
  ('C[C@]1(F)CC(F)(F)[C@@](C)(c2cc(NC(=O)c3nc(CF)co3)ccc2F)N=C1N [Compound 14]', 'BACE1 enzyme (Homo sapiens (Human))', 102),
  ('Cc1csc(C(=O)Nc2ccc(F)c([C@@]3(C)N=C(N)[C@](C)(F)CC3(F)F)c2)n1 [Compound 27]', 'BACE1 enzyme (Homo sapiens (Human))', 98),
  ('Cc1cc(C#N)cnc1C(=O)Nc1ccc(F)c([C@@]2(C)N=C(N)[C@@](C)(F)CC2(F)F)c1 [Compound 18]', 'BACE1 enzyme (Homo sapiens (Human))', 102),
  ('COc1cnc(C(=O)Nc2ccc(F)c([C@@]3(C)N=C(N)[C@@](C)(F)CC3(F)F)c2)c(F)c1 [Compound 46]', 'BACE1 enzyme (Homo sapiens (Human))', 101),
  ('Cn1cc(Br)nc1C(=O)Nc1ccc(F)c([C@@]2(C)N=C(N)[C@](C)(F)CC2(F)F)c1 [Compound 37]', 'BACE1 enzyme (Homo sapiens (Human))', 104),
  ('Cc1cn(C)c(C(=O)Nc2ccc(F)c([C@@]3(C)N=C(N)[C@](C)(F)CC3(F)F)c2)n1 [Compound 38]', 'BACE1 enzyme (Homo sapiens (Human))', 98);

----------
target: BACE1 enzyme (Homo sapiens (Human), UniProt P56817); assay: BACE1 efficacy assay (FRET-based, commercial BACE1 kit); type: biochemical; details: test compound 10 μM, 3 nM enzyme, 250 nM substrate
Sequence (P56817 46-501): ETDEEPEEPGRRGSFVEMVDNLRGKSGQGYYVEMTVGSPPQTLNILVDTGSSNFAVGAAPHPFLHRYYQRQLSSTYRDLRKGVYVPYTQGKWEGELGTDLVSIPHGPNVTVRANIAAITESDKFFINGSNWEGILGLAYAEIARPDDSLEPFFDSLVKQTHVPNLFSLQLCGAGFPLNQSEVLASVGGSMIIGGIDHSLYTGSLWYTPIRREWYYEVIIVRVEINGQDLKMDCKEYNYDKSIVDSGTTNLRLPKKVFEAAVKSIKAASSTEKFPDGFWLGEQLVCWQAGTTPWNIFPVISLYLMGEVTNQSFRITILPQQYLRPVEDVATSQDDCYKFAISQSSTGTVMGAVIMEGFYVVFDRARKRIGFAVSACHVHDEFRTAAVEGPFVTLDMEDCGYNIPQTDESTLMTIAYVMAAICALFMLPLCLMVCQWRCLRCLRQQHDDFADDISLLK
Counter-ions that a name gives are not always drawn.
Assay Metric: inhibition at 10 µM (%)

INSERT INTO measurements (compound, assay_metric, observed) VALUES
  ('Cn1ccc(C(=O)Nc2ccc(F)c([C@@]3(C)N=C(N)[C@](C)(F)CC3(F)F)c2)n1', 'inhibition at 10 µM', 74),
  ('C[C@@]1(F)CC(F)(F)[C@@](C)(c2cc(NC(=O)c3ccc(C#N)cn3)ccc2F)N=C1N', 'inhibition at 10 µM', 101),
  ('C[C@]1(F)CC(F)(F)[C@@](C)(c2cc(NC(=O)c3ccc(C(F)(F)F)cn3)ccc2F)N=C1N', 'inhibition at 10 µM', 99),
  ('Cc1nc(C(=O)Nc2ccc(F)c([C@@]3(C)N=C(N)[C@](C)(F)CC3(F)F)c2)co1', 'inhibition at 10 µM', 102),
  ('C[C@@]1(F)CC(F)(F)[C@@](C)(c2cc(NC(=O)c3ccc(F)cn3)ccc2F)N=C1N', 'inhibition at 10 µM', 100),
  ('Cc1cc(C(=O)Nc2ccc(F)c([C@@]3(C)N=C(N)[C@](C)(F)CC3(F)F)c2)on1', 'inhibition at 10 µM', 69),
  ('COc1cnc(C(=O)Nc2ccc(F)c([C@@]3(C)N=C(N)[C@@](C)(F)CC3(F)F)c2)cn1', 'inhibition at 10 µM', 96),
  ('C[C@]1(F)CC(F)(F)[C@@](C)(c2cc(NC(=O)c3coc(C(F)F)n3)ccc2F)N=C1N', 'inhibition at 10 µM', 99),
  ('Cc1ncc(C(=O)Nc2ccc(F)c([C@@]3(C)N=C(N)[C@](C)(F)CC3(F)F)c2)o1 [Compound 42, trifluoroacetic acid salt]', 'inhibition at 10 µM', 84),
  ('C[C@@]1(F)CC(F)(F)[C@@](C)(c2cc(NC(=O)c3ccc(C(F)(F)F)cn3)ccc2F)N=C1N', 'inhibition at 10 µM', 102),
  ('C[C@]1(F)CC(F)(F)[C@@](C)(c2cc(NC(=O)c3ccc(Cl)cn3)ccc2F)N=C1N', 'inhibition at 10 µM', 102),
  ('C[C@]1(F)CC(F)(F)[C@@](C)(c2cc(NC(=O)c3nc(CF)cs3)ccc2F)N=C1N', 'inhibition at 10 µM', 101),
  ('Cn1cnc(C(=O)Nc2ccc(F)c([C@@]3(C)N=C(N)[C@@](C)(F)CC3(F)F)c2)n1', 'inhibition at 10 µM', 92),
  ('Cc1noc(C(=O)Nc2ccc(F)c([C@@]3(C)N=C(N)[C@@](C)(F)CC3(F)F)c2)n1', 'inhibition at 10 µM', 102),
  ('Cc1ccc(C(=O)Nc2ccc(F)c([C@@]3(C)N=C(N)[C@](C)(F)CC3(F)F)c2)o1', 'inhibition at 10 µM', 93);
